Each recorded value in this set is attributed to paper PMC7305236.

biological target: CXCR2 (Homo sapiens, UniProt P25025); construct: expressed in transfected cells; test: Figure S2a opioid peptide screen on chemokine receptors; type: cell-based; parameters: dose or concentration left out as unconfirmed; settings: replicate 2, read-out: CXCR2 activity, ctrl+ = 100
Sequence (P25025 whole entry): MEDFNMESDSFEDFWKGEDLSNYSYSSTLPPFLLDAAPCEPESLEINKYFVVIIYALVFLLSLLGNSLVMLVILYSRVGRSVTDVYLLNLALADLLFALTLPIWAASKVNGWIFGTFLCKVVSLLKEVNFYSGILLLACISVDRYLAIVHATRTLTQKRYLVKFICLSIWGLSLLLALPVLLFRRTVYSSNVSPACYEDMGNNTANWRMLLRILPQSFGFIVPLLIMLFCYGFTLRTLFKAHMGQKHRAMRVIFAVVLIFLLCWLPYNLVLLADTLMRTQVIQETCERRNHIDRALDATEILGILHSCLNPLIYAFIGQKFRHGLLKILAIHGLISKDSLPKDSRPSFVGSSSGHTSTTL
// values below are reported activation
Give your result in % as a bare value.

Compound: C[C@H](NC(=O)CNC(=O)[C@@H](NC(=O)[C@H](Cc1ccccc1)NC(=O)CNC(=O)CNC(=O)[C@@H](N)Cc1ccccc1)[C@@H](C)O)C(=O)N[C@@H](CCCNC(=N)N)C(=O)N[C@@H](CCCCN)C(=O)N[C@@H](CO)C(=O)N[C@@H](C)C(=O)N[C@@H](CCCNC(=N)N)C(=O)N[C@@H](CCCCN)C(N)=O [Nociceptin 1-13]
Experimental target: CXCR2 (Homo sapiens, UniProt P25025)
activation (%): -9.95

Consider the record given below.
(Q) Given the entry CC(C)C[C@H](NC(=O)[C@H](CCCCN)NC(=O)[C@H](CCCN=C(N)N)NC(=O)[C@H](C)NC(=O)[C@H](CO)NC(=O)[C@H](CCCCN)NC(=O)[C@H](CCCN=C(N)N)NC(=O)[C@H](C)NC(=O)CNC(=O)[C@@H](NC(=O)[C@H](Cc1ccccc1)NC(=O)CNC(=O)CNC(=O)[C@@H](N)Cc1ccccc1)[C@@H](C)O)C(=O)N[C@@H](C)C(=O)N[C@@H](CC(N)=O)C(=O)N[C@@H](CCC(N)=O)C(=O)O [Nociceptin] , report its measured activation.
(A) -14.7

---

Known activation of a selection of compounds
target: CCR4 (Homo sapiens); construct: expressed in transfected cells; assay: Figure S2a opioid peptide screen on chemokine receptors; assay type: cell-based; set-up: dose or concentration left out as unconfirmed; conditions: replicate 1, read-out: CCR4 activity, ctrl+ = 100
Sequence (P51679 whole entry): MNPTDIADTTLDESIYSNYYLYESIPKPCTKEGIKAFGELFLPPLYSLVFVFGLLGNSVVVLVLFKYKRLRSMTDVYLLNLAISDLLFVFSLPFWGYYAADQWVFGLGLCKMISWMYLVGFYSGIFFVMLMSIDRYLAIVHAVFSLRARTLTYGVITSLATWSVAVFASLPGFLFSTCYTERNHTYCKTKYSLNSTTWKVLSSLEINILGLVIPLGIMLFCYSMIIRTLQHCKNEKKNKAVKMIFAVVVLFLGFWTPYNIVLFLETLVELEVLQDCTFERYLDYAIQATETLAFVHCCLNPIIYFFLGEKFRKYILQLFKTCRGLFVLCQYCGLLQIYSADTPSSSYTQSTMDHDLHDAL
Reply numerically in %, unit not repeated.

Before answering, review these 4 worked examples.
Compound: CC[C@H](C)[C@H](NC(=O)[C@H](CCCNC(=N)N)NC(=O)[C@H](CCCNC(=N)N)NC(=O)[C@H](CC(C)C)NC(=O)[C@H](Cc1ccccc1)NC(=O)CNC(=O)CNC(=O)[C@@H](N)Cc1ccc(O)cc1)C(=O)N[C@@H](CCCNC(=N)N)C(=O)N1CCC[C@H]1C(=O)N[C@@H](CCCCN)C(=O)N[C@@H](CC(C)C)C(=O)N[C@@H](CCCCN)C(=O)O
Measured endpoint: activation
Assay value: 0.25
//
Compound: NC(=O)[C@H](Cc1ccccc1)NC(=O)[C@H](Cc1c[nH]c2ccccc12)NC(=O)[C@@H]1CCCN1C(=O)[C@@H](N)Cc1ccc(O)cc1 [Endomorphin-1]
Measured endpoint: activation
Assay value: 0.589
//
Compound: CC(C)C[C@H](NC(=O)[C@H](CCCCN)NC(=O)[C@H](CCCN=C(N)N)NC(=O)[C@H](C)NC(=O)[C@H](CO)NC(=O)[C@H](CCCCN)NC(=O)[C@H](CCCN=C(N)N)NC(=O)[C@H](C)NC(=O)CNC(=O)[C@@H](NC(=O)[C@H](Cc1ccccc1)NC(=O)CNC(=O)CNC(=O)[C@@H](N)Cc1ccccc1)[C@@H](C)O)C(=O)N[C@@H](C)C(=O)N[C@@H](CC(N)=O)C(=O)N[C@@H](CCC(N)=O)C(=O)O
Measured endpoint: activation
Assay value: -2.47
//
Compound: CC[C@H](C)[C@H](NC(=O)[C@H](CCCNC(=N)N)NC(=O)[C@H](CCCNC(=N)N)NC(=O)[C@H](CC(C)C)NC(=O)[C@H](Cc1ccccc1)NC(=O)CNC(=O)CNC(=O)[C@@H](N)Cc1ccc(O)cc1)C(=O)N[C@@H](CCCNC(=N)N)C(=O)N1CCC[C@H]1C(=O)N[C@@H](CCCCN)C(=O)N[C@@H](CC(C)C)C(=O)N[C@@H](CCCCN)C(=O)N[C@@H](Cc1c[nH]c2ccccc12)C(=O)N[C@@H](CC(=O)O)C(=O)N[C@@H](CC(N)=O)C(=O)N[C@@H](CCC(N)=O)C(=O)O
Measured endpoint: activation
Assay value: -3.55

(Q) Consider the compound `CC[C@H](C)[C@H](NC(=O)[C@H](CCCNC(=N)N)NC(=O)[C@H](CCCNC(=N)N)NC(=O)[C@H](CC(C)C)NC(=O)[C@H](Cc1ccccc1)NC(=O)CNC(=O)CN)C(=O)N[C@@H](CCCNC(=N)N)C(=O)N1CCC[C@H]1C(=O)N[C@@H](CCCCN)C(=O)N[C@@H](CC(C)C)C(=O)N[C@@H](CCCCN)C(=O)N[C@@H](Cc1c[nH]c2ccccc12)C(=O)N[C@@H](CC(=O)O)C(=O)N[C@@H](CC(N)=O)C(=O)N[C@@H](CCC(N)=O)C(=O)O` and give its measured activation.
(A) -4.06

---

molecular target: CCR8 (Homo sapiens); assay: Figure S2a opioid peptide screen on chemokine receptors; set-up: dose or concentration left out as unconfirmed; details: read-out: CCR8 activity, ctrl+ = 100, Figure S2a; replicate 1
Sequence (P51685 whole entry): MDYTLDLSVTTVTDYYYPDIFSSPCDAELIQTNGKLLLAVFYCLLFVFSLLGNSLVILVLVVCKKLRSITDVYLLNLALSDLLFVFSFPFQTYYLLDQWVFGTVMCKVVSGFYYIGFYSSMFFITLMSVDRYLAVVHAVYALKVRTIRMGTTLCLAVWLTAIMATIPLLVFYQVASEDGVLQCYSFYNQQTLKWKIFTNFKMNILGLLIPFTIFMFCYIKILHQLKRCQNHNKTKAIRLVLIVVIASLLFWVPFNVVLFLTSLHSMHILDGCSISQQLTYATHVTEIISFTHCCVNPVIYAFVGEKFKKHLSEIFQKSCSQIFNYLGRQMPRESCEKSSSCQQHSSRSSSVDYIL
# maps each entry to its activation
Output should be the measured figure followed by the unit it is expressed in.

Molecule: CC[C@H](C)[C@H](NC(=O)[C@H](CCCNC(=N)N)NC(=O)[C@H](CCCNC(=N)N)NC(=O)[C@H](CC(C)C)NC(=O)[C@H](Cc1ccccc1)NC(=O)CNC(=O)CN)C(=O)N[C@@H](CCCNC(=N)N)C(=O)N1CCC[C@H]1C(=O)N[C@@H](CCCCN)C(=O)N[C@@H](CC(C)C)C(=O)N[C@@H](CCCCN)C(=O)N[C@@H](Cc1c[nH]c2ccccc12)C(=O)N[C@@H](CC(=O)O)C(=O)N[C@@H](CC(N)=O)C(=O)N[C@@H](CCC(N)=O)C(=O)O [Dynorphin 2-17]
Measured endpoint: activation
Assay value: -6.57%

(Q) Please give the measured activation for this molecule: CC[C@H](C)[C@H](NC(=O)[C@H](CCCNC(=N)N)NC(=O)[C@H](CCCNC(=N)N)NC(=O)[C@H](CC(C)C)NC(=O)[C@H](Cc1ccccc1)NC(=O)CNC(=O)CNC(=O)[C@@H](N)Cc1ccc(O)cc1)C(=O)N[C@@H](CCCNC(=N)N)C(=O)N1CCC[C@H]1C(=O)N[C@@H](CCCCN)C(=O)N[C@@H](CC(C)C)C(=O)N[C@@H](CCCCN)C(=O)N[C@@H](Cc1c[nH]c2ccccc12)C(=O)N[C@@H](CC(=O)O)C(=O)N[C@@H](CC(N)=O)C(=O)N[C@@H](CCC(N)=O)C(=O)O [Dynorphin A]
(A) -0.0612%

---

target: CXCR4 (Homo sapiens, UniProt P61073); construct: expressed in transfected cells; host or cells: U87, transient cotransfection of pNBe vectors; test: cell-based; parameters: dose or concentration left out as unconfirmed; conditions: Figure S2a; replicate 2; read-out: CXCR4 activity, ctrl+ = 100
Sequence (P61073 whole entry): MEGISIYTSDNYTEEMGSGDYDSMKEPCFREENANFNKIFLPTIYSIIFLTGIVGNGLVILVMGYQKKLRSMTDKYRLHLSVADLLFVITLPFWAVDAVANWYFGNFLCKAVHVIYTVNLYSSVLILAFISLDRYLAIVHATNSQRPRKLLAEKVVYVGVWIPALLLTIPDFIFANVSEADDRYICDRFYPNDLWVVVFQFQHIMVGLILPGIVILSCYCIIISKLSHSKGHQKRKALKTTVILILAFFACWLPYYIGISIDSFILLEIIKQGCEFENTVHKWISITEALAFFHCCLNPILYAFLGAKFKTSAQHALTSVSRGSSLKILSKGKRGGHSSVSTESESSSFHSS
Measured endpoint: activation

(Q) Give its activation value. Item: CC[C@H](C)[C@H](NC(=O)[C@H](CCCNC(=N)N)NC(=O)[C@H](CCCNC(=N)N)NC(=O)[C@H](CC(C)C)NC(=O)[C@H](Cc1ccccc1)NC(=O)CNC(=O)CNC(=O)[C@@H](N)Cc1ccc(O)cc1)C(=O)N[C@@H](CCCNC(=N)N)C(=O)N1CCC[C@H]1C(=O)N[C@@H](CCCCN)C(=O)N[C@@H](CC(C)C)C(=O)N[C@@H](CCCCN)C(=O)O [Dynorphin 1-13]
(A) -40.8%

---

The following compounds are shown together with reported activation values.
target: ACKR2 (Homo sapiens); construct: expressed in transfected cells; host or cells: U87 cells (human glioblastoma); experiment: Figure S2a opioid peptide screen on chemokine receptors; format: cell-based; design: dose or concentration left out as unconfirmed; conditions: replicate 1, read-out: ACKR2 activity, ctrl+ = 100
Sequence (O00590 whole entry): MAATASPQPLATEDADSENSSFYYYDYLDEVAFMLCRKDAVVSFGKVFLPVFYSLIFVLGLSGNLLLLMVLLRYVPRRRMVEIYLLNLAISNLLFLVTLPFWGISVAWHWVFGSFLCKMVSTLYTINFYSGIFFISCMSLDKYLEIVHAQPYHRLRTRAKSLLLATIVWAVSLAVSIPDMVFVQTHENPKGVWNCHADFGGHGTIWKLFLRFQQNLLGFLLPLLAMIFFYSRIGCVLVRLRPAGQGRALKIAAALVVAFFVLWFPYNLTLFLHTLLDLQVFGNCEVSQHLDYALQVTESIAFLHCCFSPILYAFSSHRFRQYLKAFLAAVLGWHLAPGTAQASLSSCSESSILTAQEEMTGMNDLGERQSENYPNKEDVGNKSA
Starred links: 1 amine or outer side, 2 acyl side, 3 side chain; linkers in the order of their positions; H or OH if unused. Non-standard residues stand in square brackets, D forms with d. Residues, ends and D or L forms follow the SMILES beside them. X1 = N[C@@H](Cc1ccccc1)CN(CC(=O)[*:2])[*:1]
Record the result as a number with its unit.

Compound: CC[C@H](C)[C@H](NC(=O)[C@H](CCCNC(=N)N)NC(=O)[C@H](CCCNC(=N)N)NC(=O)[C@H](CC(C)C)NC(=O)[C@H](Cc1ccccc1)NC(=O)CNC(=O)CN)C(=O)N[C@@H](CCCNC(=N)N)C(=O)N1CCC[C@H]1C(=O)N[C@@H](CCCCN)C(=O)N[C@@H](CC(C)C)C(=O)N[C@@H](CCCCN)C(=O)N[C@@H](Cc1c[nH]c2ccccc12)C(=O)N[C@@H](CC(=O)O)C(=O)N[C@@H](CC(N)=O)C(=O)N[C@@H](CCC(N)=O)C(=O)O
activation: 12.5%

Compound: CC[C@H](C)[C@H](NC(=O)[C@H](CCCNC(=N)N)NC(=O)[C@H](CCCNC(=N)N)NC(=O)[C@H](CC(C)C)NC(=O)[C@H](Cc1ccccc1)NC(=O)CNC(=O)CNC(=O)[C@@H](N)Cc1ccc(O)cc1)C(=O)N[C@@H](CCCNC(=N)N)C(=O)N1CCC[C@H]1C(=O)N[C@@H](CCCCN)C(=O)N[C@@H](CC(C)C)C(=O)N[C@@H](CCCCN)C(=O)N[C@@H](Cc1c[nH]c2ccccc12)C(=O)N[C@@H](CC(=O)O)C(=O)N[C@@H](CC(N)=O)C(=O)N[C@@H](CCC(N)=O)C(=O)O
activation: 15.1%

(Q) Query: activation; subject: `CSCC[C@H](NC(=O)[C@H](Cc1ccccc1)NC(=O)CNC(=O)CNC(=O)[C@@H](N)Cc1ccc(O)cc1)C(=O)N[C@@H](CCCNC(=N)N)C(=O)N[C@@H](CCCNC(=N)N)C(=O)N[C@H](C(N)=O)C(C)C`
(A) -9.62%

(Q) Input `CC(C)C[C@H](NC(=O)[C@H](CCCCN)NC(=O)[C@H](CCCN=C(N)N)NC(=O)[C@H](C)NC(=O)[C@H](CO)NC(=O)[C@H](CCCCN)NC(=O)[C@H](CCCN=C(N)N)NC(=O)[C@H](C)NC(=O)CNC(=O)[C@@H](NC(=O)[C@H](Cc1ccccc1)NC(=O)CNC(=O)CNC(=O)[C@@H](N)Cc1ccccc1)[C@@H](C)O)C(=O)N[C@@H](C)C(=O)N[C@@H](CC(N)=O)C(=O)N[C@@H](CCC(N)=O)C(=O)O`
(A) -19.6%

(Q) Then what about the compound C[C@H](NC(=O)CNC(=O)[C@@H](NC(=O)[C@H](Cc1ccccc1)NC(=O)CNC(=O)CNC[C@@H](N)Cc1ccccc1)[C@@H](C)O)C(=O)N[C@@H](CCCNC(=N)N)C(=O)N[C@@H](CCCCN)C(=O)N[C@@H](CO)C(=O)N[C@@H](C)C(=O)N[C@@H](CCCNC(=N)N)C(=O)N[C@@H](CCCCN)C(N)=O [FG Nociceptin 1-13] (H-[X1]GFTGARKSARK-NH2) ?
(A) -51.1%
